Cited source for all entries: PubChem BioAssay (NCI)

ASSAY EXPLANATION: NCI Yeast Anticancer Drug Screen. Data for the bub3 strain (AID 167)
EXPERIMENTAL PARAMETERS: S. cerevisiae bub3 mutant strain, at 50.0 µM, stronger effect = higher value
This is part of a sample that, as a whole, favours compounds with a hit. Of some 79,000 tested, about 15% had one in any assay.
Hi, to clarify the labels: TRUE covers growth inhibition from 10% upward, FALSE covers anything below 10%.

Example entries and their recorded answers appear below.
MOLECULE: CCOc1ccccc1N(CCN(C)C)C(=O)C(c1ccccc1)c1ccccc1
CLASS NAME: TRUE
--
MOLECULE: CC(=O)C(C)O (configuration not stated)
CLASS NAME: FALSE
--
MOLECULE: COC(=O)n1sc(SC)nc1=N
CLASS NAME: FALSE
--
MOLECULE: c1ccc2c(c1)CCCC(N1CCOCC1)C2 (configuration not stated)
CLASS NAME: FALSE
--
MOLECULE: O=c1c2c(sc3ccccc13)NCN(CCc1ccccc1)C2
CLASS NAME: TRUE
--
MOLECULE: CC(Cl)CN1c2ccccc2Sc2ccc(Cl)cc21 (configuration not stated)
CLASS NAME: FALSE
--
MOLECULE: COc1ccc2cc(OC)ccc2c1
CLASS NAME: FALSE
--
MOLECULE: COc1ccc(CNc2ccccc2C(=O)O)cc1OC
CLASS NAME: TRUE

stdin: Threshold query (growth inhibition >= 10%) on "CCN(CC)c1cc2c3c(c1)CCCN3CCC2"
stdout: FALSE

stdin: Please check the record "O=C(NC12CC3CC(CC(C3)C1)C2)C(=O)c1c[nH]c2ccccc12" and state if its growth inhibition is at or above 10%.
stdout: TRUE

====

ASSAY EXPLANATION: NCI Yeast Anticancer Drug Screen. Data for the mlh1 rad18 strain (AID 175)
EXPERIMENTAL PARAMETERS: S. cerevisiae mlh1 rad18 strain growth inhibition; at 50.0 µM; stronger effect = higher value
Compounds without any hit were thinned out: in the full panel of roughly 79,000, 15% have a hit.
EXPERIMENTAL READOUT: growth inhibition (%)
Your answer should be a plain number; it is taken to be in %.

These solved cases illustrate the format of a correct answer.
MOLECULE: COC(=O)CCCCC#CCCCCC(=O)OC
EXPERIMENTAL READOUT: growth inhibition
VALUE REPORTED: 12.9
--
MOLECULE: CN1C(c2ccccc2)=C(C#N)C(=O)CC(c2ccc(Cl)cc2)N1C (centres undefined)
EXPERIMENTAL READOUT: growth inhibition
VALUE REPORTED: 2.65
--
MOLECULE: CCOc1ccccc1NC(=O)C(=O)C(/C(=N/N)C(=O)OC)c1nc2ccc([N+](=O)[O-])cc2[nH]c1=O (centres undefined)
EXPERIMENTAL READOUT: growth inhibition
VALUE REPORTED: 9.25
--
MOLECULE: CC(C)NS(=O)(=O)c1ccc(Cl)cc1
EXPERIMENTAL READOUT: growth inhibition
VALUE REPORTED: 1.85
--
MOLECULE: CC(=O)Nc1cc2ccccc2c(Br)n1
EXPERIMENTAL READOUT: growth inhibition
VALUE REPORTED: -6.15

stdin: // query growth inhibition value for entry "Cc1ccc2c(c1)CN(C)c1ccc(C)cc1CN2C"
stdout: 31.1

stdin: # lookup: growth inhibition of "COc1ccc2c(ccc3[nH]c4c(C)cnc(NCCCN(C)C)c4c32)c1"
stdout: -7.85

stdin: Could you share which growth inhibition value was measured for "CCCCn1cnnc1NS(=O)(=O)c1cc(C)c(Cl)cc1SCC(=O)O" ?
stdout: -5.5

stdin: Which growth inhibition value is on record for "CN(C)C(=S)Oc1ccc([N+](=O)[O-])cc1Cl" ?
stdout: 29.3

stdin: Given the entry "N#C[C@H](c1nc2ccccc2[nH]1)c1nc2ccccc2nc1Cl" , report its measured growth inhibition.
stdout: 12.7

stdin: Entry CC(C)(C)[Si](C)(C)OC1C(=O)C[C@H]2CCCC[C@@H]12 (some centres undefined) : reported growth inhibition = ?
stdout: 22.3

stdin: // lookup growth inhibition for "CN(CC#N)[C@H]1CCC[C@]1(O)C#C[Si](C)(C)c1ccccc1"
stdout: 1.55

stdin: Given the molecule COc1cccc(C2C(C(=O)O)=C(CO)Oc3cc4c(cc32)OCO4)c1 (centres undefined) , what is its reported growth inhibition?
stdout: 15.2

stdin: For "COc1cc2nc(C)oc(=O)c2cc1OC" , what is its reported growth inhibition?
stdout: 0.85

====

ASSAY EXPLANATION: NCI Yeast Anticancer Drug Screen. Data for the sgs1 mgt1 strain (AID 161);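 also: 0% = growth of cultures given vehicle only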
EXPERIMENTAL PARAMETERS: S. cerevisiae sgs1 mgt1 strain, at 50.0 µM, stronger effect = higher value
The panel holds about 79,000 compounds, 15% with a hit somewhere; the sample as a whole holds those more often. The source made the active and inactive calls. Rule as the data show it: active = growth inhibition above about 70%; inactive = the rest.
EXPERIMENTAL READOUT: growth inhibition

Answered cases to consult:
COMPOUND: CCCCOc1ccc(Nc2c(C(=O)OCC)cnc3cc4c(cc23)OCO4)cc1
VALUE REPORTED: -0.25% (inactive)
--
COMPOUND: CC(=O)C1CCC2C3C=C(C)C4=CC(=O)CCC4(C)C3(F)C(=O)CC12C (stereo not given)
VALUE REPORTED: 6% (inactive)
--
COMPOUND: c1ccc(CSCCc2ccncc2)cc1
VALUE REPORTED: -21.1% (inactive)
--
COMPOUND: COc1ccc2c(c1)OCC1=C2Oc2ccccc2C1
VALUE REPORTED: 99.1% (active)
--
COMPOUND: Nc1ccc(-c2ccc(N=C(/C=N/O)NO)cc2)cc1
VALUE REPORTED: 2.4% (inactive)

stdin: Bench note: what growth inhibition did "CCN(CC)CCOC(=O)c1ccc(N=Nc2ccc(O)cc2)cc1" show?
stdout: -17.9% (inactive)

stdin: Entry "CCC1(CC)C(=O)N(C(=O)c2ccccc2)N(C(=O)c2ccc(Cl)cc2)C1=O" : reported growth inhibition = ?
stdout: 34.5% (inactive)

====

ASSAY EXPLANATION: NCI Yeast Anticancer Drug Screen. Data for the sgs1 mgt1 strain (AID 161);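 also: 0% = growth of cultures given vehicle only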
EXPERIMENTAL PARAMETERS: S. cerevisiae sgs1 mgt1 strain, at 50.0 µM, stronger effect = higher value
The panel holds about 79,000 compounds, 15% with a hit somewhere; the sample as a whole holds those more often.
Measured growth inhibition by item
Report the value in % with no unit label.

Completed entries (count: 6):
COMPOUND: N#C/C(=C\NC(=S)Nc1ccccc1Cl)C(=O)c1ccc2ccccc2c1
VALUE REPORTED: 0.7
//
COMPOUND: CCOC(=O)CCN1C(=O)C(=O)N(c2ccc(OC)cc2)C1=S
VALUE REPORTED: 3.75
//
COMPOUND: CC(C)(C)C(=O)/C=C/c1ccc(Oc2ccccc2)cc1
VALUE REPORTED: 4.05
//
COMPOUND: CCOc1ccc(C(C)(CC)c2cc3c(cc2OC)OCO3)cc1 (stereo unspecified)
VALUE REPORTED: -23.3
//
COMPOUND: C=CCCCOC(C)=O
VALUE REPORTED: 12.5
//
COMPOUND: O=c1[nH]c2cc([N+](=O)[O-])ccc2nc1/C=C(\O)c1ccc(Cl)cc1
VALUE REPORTED: -20.1

stdin: Would you mind telling me what growth inhibition value was observed for "Cn1c(=O)c2ccccc2[n+]2c(-c3cccc([N+](=O)[O-])c3)csc12" ?
stdout: 41.5

stdin: Would you kindly share the measured growth inhibition for CS(=O)(=O)OC1CCC2CCCC1(C(=O)O)C2 (stereo unspecified) ?
stdout: -0.75

stdin: Look up growth inhibition for this compound: "O=c1c2c(sc3ccccc13)NCN(CCc1ccccc1)C2"
stdout: 20.9

stdin: Entry under review: "COC(=O)c1cc2c3c(ccc2[nH]1)N(C(=O)c1cc2c4c(ccc2[nH]1)N(C(=O)c1cc2c5c(ccc2[nH]1)N(C(N)=O)CC5)CC4)CC3" . Reported growth inhibition?
stdout: -2.05

stdin: Name the recorded growth inhibition for C1CCC(C2CCCC[N-]2)[N-]C1.[Cl][Cu][Cl] (stereo unspecified) .
stdout: 9.85

====

ASSAY EXPLANATION: NCI Yeast Anticancer Drug Screen. Data for the mlh1 rad18 strain (AID 175)
EXPERIMENTAL PARAMETERS: S. cerevisiae mlh1 rad18 strain growth inhibition; at 50.0 µM; stronger effect = higher value
Compounds without any hit were thinned out: in the full panel of roughly 79,000, 15% have a hit.
Give Yes when the value for growth inhibition is at least 20%. Give No when it is less.

Below are worked cases with known answers.
COMPOUND: CN(C)CCCSc1n[nH]c(=O)[nH]c1=O
CLASS NAME: No
//
COMPOUND: Cc1cc(-c2cccc3ccccc23)c(C#N)c(=S)n1C1OC(CO)C(O)C(O)C1O (stereo not given)
CLASS NAME: Yes
//
COMPOUND: CSCCC(N)=O
CLASS NAME: No
//
COMPOUND: CC(C)(CCN(CC(=O)O)CC(=O)O)[N+](=O)[O-]
CLASS NAME: No
//
COMPOUND: NC(=S)Nc1c(Cl)cc(Cl)cc1Cl
CLASS NAME: No
//
COMPOUND: CC(=O)CC(C)(C)OCc1ccccc1
CLASS NAME: Yes
//
COMPOUND: CCCCCCCCCC1OCCC(C)O1 (stereo not given)
CLASS NAME: Yes
//
COMPOUND: CC(=O)OC(C(=O)Nc1nncs1)c1ccccc1 (stereo not given)
CLASS NAME: No

stdin: Has "CN1C(=O)N(C)C2(CCN(CCCCCCF)CC2)C1=O" a recorded growth inhibition greater than or equal to 20%?
stdout: No

stdin: growth inhibition >= 20% for "CCOC(=O)c1nc2ccc(C(F)(F)F)cc2[nH]c1=O" ?
stdout: No

stdin: hey, is growth inhibition for this one >= 20%? O=C(CCC(NC(=O)OCc1ccccc1)C(=O)OCc1ccccc1)Nc1cccc(OCc2ccccc2)c1 (stereo not given)
stdout: No

stdin: Identify whether the reported growth inhibition of the following compound is 20% or greater: "N=C(N)Cn1cnc2ccccc21"
stdout: No

stdin: Check this compound for growth inhibition at or above 20%: "CCC1CCN(CC)CC1"
stdout: No

stdin: Reported growth inhibition at or above 20%? "Cc1ccc(C(C)C)cc1NC(=O)NCCCl"
stdout: No

stdin: Determine whether this compound has growth inhibition no lower than 20%: Cc1nnnn1[C@H]1C(C#N)CC2[C@@H]3CCC4=Cc5nnnn5CC[C@]4(C)C3CC[C@@]21C (stereo not given in full)
stdout: Yes

stdin: Test whether the compound "COc1ccc(/C=C2\N=C(N3CCOCC3)NC2=O)cc1" records growth inhibition of 20% or higher.
stdout: No

stdin: Would you say "O=C(O)c1cnccn1" shows growth inhibition at minimum 20%?
stdout: No
